assay: in vitro; settings: NMRI, mouse, microsomes
endpoint-name: microsomal CLint at 1 µM

Q: Data request, read-out microsomal CLint at 1 µM, for `CN1Cc2cc(Cl)ccc2-n2c(nnc2[C@H]2CC[C@H](Oc3ccccn3)CC2)C1`
Result: 17 µL/min/mg

###

test system: P-glycoprotein; assay: Efflux ratio of Apparent permeability across apical to basolateral side in vinblastine-treated human Caco-2 cells expressing P-glycoprotein at 1 uM by HPLC-UV analysis; type: ADME
endpoint-name: efflux ratio at 1 µM
In your answer, state the number alone without any accompanying words.

Take a look at these entries with their results.
{"columns": ["smiles-record", "endpoint-name", "quantitative-readout"],
 "data": [
  ["COc1nc2cc(Cl)ccc2n2c(C3CCN(c4ccccn4)CC3)nnc12", "efflux ratio at 1 µM", 0.8],
  ["Cc1ccccc1N1CCN(C(=O)N2C[C@@H](C(=O)N3CCCC3)Cc3cc(Cl)ccc32)CC1", "efflux ratio at 1 µM", 1.3],
  ["Clc1ccc2c(c1)CCCc1nnc(C3CCN(c4ccccn4)CC3)n1-2", "efflux ratio at 1 µM", 1.1]
]}

Kindly consider the entry below.
Q: Quick check: efflux ratio at 1 µM on P-glycoprotein, item `CN1Cc2cc(Cl)ccc2-n2c(nnc2[C@H]2CC[C@H](Oc3ccccn3)CC2)C1` ?
Result: 1.1

###

Below are molecules with their log10 Ki as measured on UniProtKB P37288.
Recorded Ki (log10, nM)

Take a look at these entries with their results.
{"columns": ["molecule", "endpoint-name", "quantitative-readout"],
 "data": [
  ["Cc1cc([C@H]2CC[C@H](c3nnc4n3-c3ccccc3CCC4)CC2)no1", "log10 Ki", 0.20],
  ["Clc1ccc2c(c1)CCCc1nnc([C@H]3CC[C@H](Oc4ccccn4)CC3)n1-2", "log10 Ki", -0.10],
  ["Cc1cc([C@H]2CC[C@H](c3nnc4n3-c3ccc(Cl)cc3[C@H]3C[C@@H]43)CC2)no1", "log10 Ki", 1.74],
  ["COC(=O)C12CC1c1cc(Cl)ccc1-n1c2nnc1[C@H]1CC[C@H](Oc2ccccn2)CC1 (stereo not given in full)", "log10 Ki", 2.60]
]}

Q: Quick check: log10 Ki on UniProtKB P37288, item `CC(=O)N1c2cc(Cl)ccc2-n2c(C3CCN(c4ccccn4)CC3)nnc2C1(C)C` ?
Result: 3.38

###

target: Vasopressin V1a receptor (Homo sapiens, UniProt P37288)
Sequence (P37288 whole entry): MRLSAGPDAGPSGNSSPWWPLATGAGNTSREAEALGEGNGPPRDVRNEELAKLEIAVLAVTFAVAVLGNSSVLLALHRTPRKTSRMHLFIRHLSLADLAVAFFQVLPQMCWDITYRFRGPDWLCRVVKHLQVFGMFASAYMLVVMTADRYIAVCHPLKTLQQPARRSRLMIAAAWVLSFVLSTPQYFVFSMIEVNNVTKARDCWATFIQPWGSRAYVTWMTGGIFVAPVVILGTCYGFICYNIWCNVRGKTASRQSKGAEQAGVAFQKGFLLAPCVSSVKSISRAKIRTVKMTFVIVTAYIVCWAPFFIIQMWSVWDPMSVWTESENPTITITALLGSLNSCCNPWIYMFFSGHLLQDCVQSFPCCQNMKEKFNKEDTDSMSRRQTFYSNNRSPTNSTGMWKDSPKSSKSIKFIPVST
Lab note - cut at 70 nM for Ki: condition met if strictly below, condition not met if not.

{"columns": ["molecule", "cat"],
 "data": [
  ["O=C(C1CCN(c2ccccn2)CC1)N1CCNc2cc(Cl)ccc21", "condition met"],
  ["Clc1ccc2c(c1)C1CC1c1nnc([C@H]3CC[C@@H](Oc4ccccn4)CC3)n1-2 (some centres not stated)", "condition not met"],
  ["COc1nc2cc(Cl)ccc2n2c(C3CCN(c4ccccn4)CC3)nnc12", "condition not met"]
]}

Q: Identify whether the molecule `Cc1cc([C@H]2CC[C@H](c3nnc4n3-c3ccc(Cl)cc3CC4)CC2)no1` records Ki below 70 nM.
Result: condition met

Q: Identify whether the molecule `Cc1cc([C@H]2CC[C@H](c3nnc4n3-c3ccc(Cl)cc3[C@@H]3C[C@H]43)CC2)no1` records Ki below 70 nM.
Result: condition not met

Q: Identify whether the molecule `c1ccc(O[C@H]2CC[C@H](c3nnc4n3-c3ccccc3CCC4)CC2)nc1` records Ki below 70 nM.
Result: condition met
